- assay method text: in vivo
- experimental setup: mouse, iv
metric name: half-life (h)
Kindly answer with a numeric value in h, unit omitted.

Looking up `OCCNCc1ccc(OCc2ccccc2)c(OCc2ccccc2)c1` , I see its half-life listed as 4
